- method.summary: soluble on expression in E. coli; label from the status in PepcDB or PDB records
experimental.endpoint: soluble on expression in E. coli

Worked cases, soluble on expression in E. coli given:
* MAGDPMPTLFDDPLHQLPRPPRRVAAGVVHLPNFLGLAEQKALVAQARDLAREVVGTPLAMVRPKLKSGQMSVHMLHLGKYWASNPYRYVDVVDGFPVPPLPDSFVDLAHRALLSAGSLSNSLQSWSEAYRAEAALVNYYSPDASMGMHQDANEESEAPVISLSIGDTGIFRLGGTLNRNKPWTDIPLMSGDLIVFGGANRQAFHGIPSIEANTAPAGCGLKEGRINITIRQLALAAALEHHHHHH | soluble
* MNPEVTVLMSVYNDKNYLSESIESILNQTFENFEFLIINDASTDGSGELLEEYSKKDKRIRLIHNKNNRGLSYSLAEGVSLAKAPWIARMDADDVSFKDRLAVQMDHVKAHSELDILGSYVIDIDDKGNELEIRKVPTTHKEIANLIWTCPFIHPTVLFKKDSIIKAGSYDRNLRRRQDYDLWFRCLEAKLKFENIDKPLLYYRSTDDYYKKNNFKVQVQQAKMGFAGARRVKAKPIAYIGITVAFIKGILPYHIRKPLSQLLKKVDPRRALEHHHHHH | soluble
* MPNAGELASLMEENAMPKVVVRNFAISLDGYGAGPDQSLQNPLGVKGEELHQWAFKTRTFHRMFGKEGGSTGTDENFSEKSFENIGAWVLGRNMFGPVRGAWPDESWKGWWGEEPPYHVPVFVLTHHARPSFTMKGGTEFHFVTDGIEAALDRALTAANGKDVRIGGGVSTIRQYMAAGMIDELHLALAPVFLGKGEQLFEGLDLPALGYRCTGTVAGEGATHLIIEKV | not soluble
* MGSDKIHHHHHHMQLAQARNDNGERFVLVIEDDPTQARRLDDVNSVHALALTALDRKVGLAALIKEWPGDARVDAVALADKGQLLAPLDHPDPAHLLVTGTGLTHLGSAEGRDKMHRQMNEADQSDQPLTDSMKMFRKGLEGGKPAPGDFGVQPEWFYKGDGGIVMAPGEALRMPHFALDGGEEPEVAGLYLIDNDGVPRRIGYALGNEFSDHVTERENYLYLAHSKLRACSFGPTLLIDELPDDVQGTSRIRRGDEVLWEKPFISGEANMCHTLANLEAHHFKYAQFCRPGDVHVHFFGTATLSFSDGIIPQPGDVFEIDAKPFALPLRNPLSKDAVAPAPSVKPL | not soluble
* GAMGNNLVETTCKNTPNYQLCLKTLLSDKRSATGDITTLALIMVDAIKAKANQAAVTISKLRHSNPPAAWKGPLKNCAFSYKVILTASLPEAIEALTKGDPKFAEDGMVGSSGDAQECEEYFKGSKSPFSALNIAVHELSDVGRAIVRNLL | soluble
* MGSDKIHHHHHHVSKPHYKTTNWKQYNQALINRGSLTFWIDEDAIAKWKAKVEQPKKGRPRVFSDLAITTALMVKRIFSMPLRALQGFINSVFKLGDIPLSCPHYTCISKRAKTVNIAFKTKTRGAIKHLAIDSTGLKVYGEGEWKVKKHGTDGKRRVWRKLHIAVDTHSHEIIAAELSLSGVTDAEVMPNLLKQTHRKIRNISGDGAYDTKACHEAVRRKRALVLIPPREGAALWEQGHPRNLAVSWQQLHGSNKQWKKRYGYHRRSISETAMYRIKQLLGGTLSMRNYNAQVGETYAMIRALNKLTGLGMPETHYVA | not soluble
* GEIYTETLQQTYAWTAGTNIPIKIPRNNFIRKIRVQLIGSISNSGTAAVTLPSAPFPYNLVQTFNLSYEGSKTLYSVSGTGLGILMYYTTKGQNPAYPAPGTSVPASGSVNLNVMWEFDLARFPATMVQNIILSILTGQAPSGVSINASFYITITYERVTAQEILSEGGLGADGEMPLATVLPKVIEIPTFNVPASSAPIHVAYLQPGQIYKRQLVYVINSTSGINNTDPTEYELKIVRGVPTDKIKVSWAALQAENQAEYQVAPYSGASAIIDFRKYFNGDLDLTHAPSDSIEYDLALQNQDNVYSLYVSYVLPYYDQLAALPAQVAAIVQQYVARQKRRIKRHHHHHH | soluble
* MAHHHHHHMQFVVVDGSWPVVPCAIPRSQLLARSVKDTDHGEDGGGQSVLPGHALFTLCQEVLDTSASKTKAPPELATLDMTFLRDPQSGPLGALRLYTFKSVSHQFFAVEDLVSSGCLIVFTSHWASLTSAALLTGVRTTHKEKDDSAKSSRRRIENNTGSGTREVSASRASSLMGRGRSVLQKFSRAETYFTSVASATQRDFEMVNELLLSGTIRMNAHLESFLCSVCGNLPRRTMTTSCCGAVVCLLCAPTLSSSSVLREEVVCAVCGEMPLTNPEAHVSRDAEVMRLVRELRVLYHPQVSAAACRAMPGETQPPPTPFNVHHAGLPVPICDMNEPTGSVLGSVFMGPS | not soluble
* MFRLSALYRYPIKSSAAESLERVALDALGVVGDRRWMAVDTETGRFFTQRLLPQLGRIQARWAAPEVLRLNAPGMSELSLEVPAADANLRGVTVWRDTLQAPDAGDAAADWLTRFLGRPTRLVHIPEARARQVDTGYAEPGQKVHFADGFPLLLIGQASLDDLSQRVGRPLEMLRFRPNLVVEGSAAFAEDGWKRIRIGSVEFVVAKPCSRCILTTLDPATGERNEDREPLTTLKTYREKDGAVLFGQNLIALGQGSLEVGMPVEILD | soluble

Now for another entry.
Name the recorded soluble on expression in E. coli for MGSDKIHHHHHHMKNYTPIQTETTQNHSKSAGMNNQTEKVLDFDECITFLNKKGKELFGLKFFIDPADYEVVYKILIYIIKDERNAQRHKISLDKGIMLSGPVGCGKTTLMNLMNHIIPVANRYIVRSCRLVSYDFISQGYDAIHKYSYQSFKNNKKVVTPQAWCFDDLGTESSLKYYGNECNVMAEILLSRYDLFIEKDMVTHITTNLVAEEIESFYGVRVRSRMREMFNLISFDRNSKDKRV . not soluble
